- targetOrTestSystem: human CB1 receptors (Homo sapiens, UniProt P21554)
- Construct: expressed in transfected cells; host or cells: CHO cells
- Sequence (P21554 whole entry): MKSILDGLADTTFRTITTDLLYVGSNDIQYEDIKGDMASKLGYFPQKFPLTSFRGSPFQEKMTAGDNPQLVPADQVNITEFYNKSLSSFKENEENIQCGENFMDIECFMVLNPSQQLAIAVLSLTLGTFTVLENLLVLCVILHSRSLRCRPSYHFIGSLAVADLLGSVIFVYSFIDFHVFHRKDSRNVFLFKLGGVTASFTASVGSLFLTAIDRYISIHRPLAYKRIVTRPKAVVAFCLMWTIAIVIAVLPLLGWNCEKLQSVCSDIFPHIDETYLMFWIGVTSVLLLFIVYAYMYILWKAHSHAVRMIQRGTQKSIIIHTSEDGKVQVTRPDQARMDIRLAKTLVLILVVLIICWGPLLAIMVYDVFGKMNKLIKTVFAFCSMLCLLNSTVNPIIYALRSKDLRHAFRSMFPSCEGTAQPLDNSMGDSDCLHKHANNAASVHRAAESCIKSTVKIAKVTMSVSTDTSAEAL
- assayMethodText: cAMP assay
- Assay type: cell-based
# EC50 per entry
Answer in nM, number only, no unit symbol.

CC(C)(C)c1nc(N2CCC(F)(F)C2)c2nn(Cc3nc(Cl)ccc3Cl)nc2n1 : 98.6

Query (compound): CC(C)(C)c1nc(N2CCC(F)(F)C2)c2nn(Cc3cnccc3Cl)nc2n1 ; field requested: EC50 642

----------
- targetOrTestSystem: human CB2 receptors (Homo sapiens)
- Construct: expressed in transfected cells; host or cells: CHO cells
- assayMethodText: cAMP assay
- Format: cell-based
- Description: CHO cells expressing human CB1 or CB2 receptors are seeded 17-24 hours prior to the experiment 50.000 cells per well in a black 96 well plate with flat clear bottom (Corning Costar #3904) in DMEM (Invitrogen No. 31331), 1×HT supplement, with 10% fetal calf serum and incubated at 5% CO2 and 37° C. in a humidified incubator. […] The time-resolved energy transfer is measured by a TRF reader (Evotec Technologies GmbH), equipped with a ND:YAG laser as excitation source. […]
Each entry below carries its recorded pEC50.
Entry type: numeric. Quantity: pEC50, the -log10 of concentration in molar units.

Cn1nnnc1Cn1nc2nc(NC(C)(C)C)nc(N3CCC(F)(F)C3)c2n1 [Example 139] : 7.55
CC(C)(C)c1nc(N2CCC(F)(F)C2)c2nn(Cc3ccccc3S(C)(=O)=O)nc2n1 [Example 49] : 9.40
C[C@H](Oc1nc(N2CCC(F)(F)C2)c2nn(Cc3ncccc3Cl)nc2n1)C(F)(F)F [Example 117] : 7.67
CC(C)(C)c1nc(N2CCC(F)(F)C2)c2nn(Cc3c[nH]nc3C(F)(F)F)nc2n1 [Example 72] : 7.93

Which pEC50 reading was recorded for the molecule C[C@H](Oc1nc(N2CCC(F)(F)C2)c2nn(Cc3ccccc3S(C)(=O)=O)nc2n1)C(F)(F)F [Example 116] ? 7.64

Similarly, CC(C)(C)c1nc(N2CCC(F)(F)C2)c2nn(CC3CCCCC3)nc2n1 [Example 6] ? 9.30

Record: CC(C)(C)c1nc(N2CC[C@](C)(O)C2)c2nn(Cc3ccccc3S(C)(=O)=O)nc2n1 [Example 126-a] 7.97

Moving on to the next molecule: CC(C)(C)c1nc(N2CC[C@@](C)(O)C2)c2nn(Cc3ccccc3Cl)nc2n1 [Example 124-b] 8.17

Same question, CC(C)(C)c1nc(N2CCC(F)(F)C2)c2nn(Cc3cc(Cl)cnc3Cl)nc2n1 [Example 37] this time 9.05

----------
- targetOrTestSystem: human CB2 receptors (Homo sapiens, UniProt P34972)
- Construct: expressed in transfected cells; host or cells: CHO cells
- Sequence (P34972 whole entry): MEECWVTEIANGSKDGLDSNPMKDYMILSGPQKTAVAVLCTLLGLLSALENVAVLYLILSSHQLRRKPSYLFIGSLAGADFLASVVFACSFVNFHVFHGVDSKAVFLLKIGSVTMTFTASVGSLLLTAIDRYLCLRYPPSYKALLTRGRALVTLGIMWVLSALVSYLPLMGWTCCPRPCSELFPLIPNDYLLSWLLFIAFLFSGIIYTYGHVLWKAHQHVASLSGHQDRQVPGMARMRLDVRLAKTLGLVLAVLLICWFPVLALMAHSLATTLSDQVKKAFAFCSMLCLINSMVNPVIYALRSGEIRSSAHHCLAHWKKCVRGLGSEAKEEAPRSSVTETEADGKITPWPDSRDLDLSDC
- assayMethodText: cAMP assay
- Assay type: cell-based
// classify: if (EC50 < 6 nM) 1 (yes) else 0 (no)

CC(C)(C)c1nc(N2CCC(F)(F)C2)c2nn(Cc3cccc(C(F)(F)F)c3Cl)nc2n1 [Example 56] : 0 (no)
Cc1nc(Cn2nc3nc(C(C)(C)C)nc(N4CC[C@H](O)C4)c3n2)no1 [Example 86] : 0 (no)
Cc1cc(Cn2nc3nc(C(C)(C)C)nc(N4CCC(F)(F)C4)c3n2)n(C)n1 [Example 81] : 0 (no)
CC(C)(C)c1nc(N2CCC(F)(F)C2)c2nn(Cc3ccccn3)nc2n1 [Example 15] : 1 (yes)

--- query ---
Quick check: does CC(C)(C)c1nc(N2CCC(F)(F)C2)c2nn(Cc3ccc(Cl)cc3Cl)nc2n1 [Example 10] have EC50 under 6 nM? 1 (yes)

----------
- targetOrTestSystem: human CB2 receptors (Homo sapiens, UniProt P34972)
- Construct: expressed in transfected cells; host or cells: CHO cells
- assayMethodText: cAMP assay
- Assay type: cell-based
endpointLabel: log10 EC50 (log10 of the value in nM)
Quick note: numbers are log10 of EC50, with nM as the unit.

Cc1nnc(Cn2nc3nc(C(C)(C)C)nc(N4CC[C@](C)(O)C4)c3n2)o1 : 1.85
Cc1nonc1Cn1nc2nc(NC(C)(C)C)nc(N3CCC(F)(F)C3)c2n1 : 0.79
CC(C)(C)c1nc(N2CC[C@](C)(O)C2)c2nn(Cc3ncccc3Cl)nc2n1 : 0.71
Cc1nnc(Cn2nc3nc(C(C)(C)C)nc(N4CC(F)(F)C(F)(F)C4)c3n2)n1C : 1.32
CC(C)(C)c1nc(N2CCC(F)(F)C2)c2nn(Cc3cccc(F)c3Cl)nc2n1 : -0.15

Name the recorded log10 EC50 for CC(C)(C)c1nc(N2CC[C@H](O)C2)c2nn(Cc3cccc(Cl)c3Cl)nc2n1 . 0.78

Now give it for Cc1noc(Cn2nc3nc(C(C)(C)C)nc(N4CC[C@H](O)C4)c3n2)n1 too. 1.79

Same for Cc1nonc1Cn1nc2nc(C(C)(C)C)nc(N3CC[C@](C)(O)C3)c2n1 1.01

----------
Consider the following compounds and their measured EC50 readings.
- targetOrTestSystem: human CB1 receptors (Homo sapiens)
- Construct: expressed in transfected cells; host or cells: CHO cells
- assayMethodText: cAMP assay
- Assay type: cell-based

Previously resolved entries follow.
CC(C)(C)c1nc(N2CCC(F)(F)C2)c2nn(Cc3cccnc3)nc2n1 [Example 16] : > 10 µM
CC(C)(C)c1nc(N2CCC(F)(F)C2)c2nn(CC3CCCCC3)nc2n1 [Example 6] : 0.306 µM
Cc1nonc1Cn1nc2nc(C(C)(C)C)nc(N3CC[C@H](O)[C@@H]3CO)c2n1 [Example 98] : > 10 µM
CC(C)(C)c1nc(N2CC[C@](C)(O)C2)c2nn(Cc3ncccc3Cl)nc2n1 [Example 127-a] : 0.757 µM
Cc1nnc(Cn2nc3nc(C(C)(C)C)nc(N4CC[C@H](O)C4)c3n2)o1 [Example 87] : > 10 µM
Cc1nnc(Cn2nc3nc(C(C)(C)C)nc(N4CC(F)(F)C(F)(F)C4)c3n2)n1C [Example 103] : > 10 µM
CC(C)(C)c1nc(N2CCC(F)(F)C2)c2nn(C3CS(=O)(=O)C3)nc2n1 [Example 62] : > 10 µM
Cc1nnc(Cn2nc3nc(C(C)(C)C)nc(N4CC[C@@](C)(O)C4)c3n2)o1 [Example 128-b] : > 10 µM

Returns the measured EC50 for the input compound. Input: CC(C)(C)c1nc(N2CCC(F)(F)C2)c2nn(Cc3ccccc3S(C)(=O)=O)nc2n1 [Example 49] 0.15 µM

Please do the same for Cn1nnnc1Cn1nc2nc(C(C)(C)C)nc(N3CC[C@@](C)(O)C3)c2n1 [Example 130-b] as well. > 10 µM

Try this compound too: CC(C)(C)c1nc(N2CCC(F)(F)C2)c2nn(Cc3cc(F)c(F)cc3Cl)nc2n1 [Example 19] > 10 µM

Also check CC(C)(C)c1nc(N2CC[C@H](O)C2)c2nn(Cc3ncccc3Cl)nc2n1 [Example 75] > 10 µM

Moving on to CC(C)(C)c1nc(N2CC[C@H](O)C2)c2nn(Cc3ccccc3C(F)(F)F)nc2n1 [Example 79] > 10 µM

Can you handle Cc1nonc1Cn1nc2nc(C(C)(C)C)nc(N3CC[C@@](C)(O)C3)c2n1 [Example 131-b] next? > 10 µM

----------
- targetOrTestSystem: human CB2 receptors (Homo sapiens)
- Construct: expressed in transfected cells; host or cells: CHO cells
- assayMethodText: cAMP assay
- Format: cell-based
- protocolConditions: functional cAMP assay, CHO cells expressing human CB2; read-out: human CB2 EC50
endpointLabel: EC50 (nM)
Write the number in nM without appending the unit.

Cc1nnc(Cn2nc3nc(O[C@@H](C)C(F)(F)F)nc(N4CCC(F)(F)C4)c3n2)o1 [Example 118] : 441
CC(C)(C)c1nc(N2CC[C@H](O)C2)c2nn(Cc3cccnc3Nc3ccc([N+](=O)[O-])c4nonc34)nc2n1 [Example 93] : 270
Cn1ncnc1Cn1nc2nc(C(C)(C)C)nc(N3CC[C@H](O)C3)c2n1 [Example 89] : 372
Cc1cc(Cn2nc3nc(C(C)(C)C)nc(N4CC[C@H](O)C4)c3n2)n(C)n1 [Example 91] : 124
CC(=O)N[C@H]1CCN(c2nc(O[C@@H](C)C(F)(F)F)nc3nn(Cc4ccccc4Cl)nc23)C1 [Example 141] : 1150
Cc1noc(Cn2nc3nc(O[C@@H](C)C(F)(F)F)nc(N4CCC(F)(F)C4)c3n2)n1 [Example 119] : 439

Find the measured EC50: item Cc1nonc1Cn1nc2nc(C(C)(C)C)nc(N3CC[C@H](O)[C@@H]3CO)c2n1 [Example 98] , target or system human CB2 receptors (Homo sapiens). 211

Next compound: Cc1nc(Cn2nc3nc(C(C)(C)C)nc(N4CC[C@H](O)C4)c3n2)n(C)n1 [Example 95] 257

Also CC(=O)N[C@H]1CCN(c2nc(O[C@@H](C)C(F)(F)F)nc3nn(Cc4ccccc4C(F)(F)F)nc23)C1 [Example 142] ? 1110

What do you have for CC(C)(C)c1nc(N2CC[C@H](O)[C@@H]2CO)c2nn(Cc3nnnn3C3CC3)nc2n1 [Example 97] ? 144

Quick one: CC(C)Oc1nc(N2CC[C@H](O)C2)c2nn(Cc3ccccc3Cl)nc2n1 [Example 111] 265

O[C@H]1CCN(c2nc(OCC(F)(F)F)nc3nn(Cc4ccccc4Cl)nc23)C1 [Example 109] ? 107

Entry to check: Cn1nnnc1Cn1nc2nc(NC(C)(C)C)nc(N3CC[C@H](O)C3)c2n1 [Example 145] 1090

Numbers sourced from patent US9067943B2.
